Where do these numbers come from? They come from the nanobody polyreactivity screen of Harvey et al. (2022).

Assay: yeast display, Sf9 membrane polyspecificity reagent, FACS + sequencing; frameworks hold sequencing errors
observation-type: polyreactivity (PSR sort gate)

Example entries and their recorded answers appear below.
QVQLVESGGGLVQAGGSLRLSCAASGRTFYRYAMGSYRQAPGKEREFVAVISTDGSSTYYADSVKGRFTISRDNAKNTVYLQMNSLKPEDTAVYYCNKYVYGHKYGYRYSGVQDYYYWGQGTQVTVSS :: high polyreactivity
QVQLVESGGGLVQAGGSLRLSCAASGSTFHTNAMGWYRQAPGKERELVDAISRSGTSTYYADSVKGRFTISRDNAKNSVYCQMNSLNPEDTAVYYCAAYGPRVNGEIGREYYYWGQGTQVTVSS :: low polyreactivity
QVQLVESGGGLVQAGGSLRLSCAASGRTFYKYGRGWYRQAPRKERELVASISSGGNTYYADSVKGRFTISRDNAKHTVYLQMNSLKPDASAVFYCAAVNYWPFYYYVYGYWGQGTQVTVSS :: high polyreactivity
QVQLVESGGGLVQAGGSLRLSCAASGRTFGIYAMGWYRQAPGKERELVAAITWSGDSTYYADSVKGRFTISRDNAKNTVYLQMNSLKPEDTAVYYCAADYVGVTSVRYDYWGQGTQVTVSS :: low polyreactivity
QVQLVESGGGLVQAGGSLRLSCAASGRTFYGYTMGWYRQAPGKERELVAAISWTGGRTYYADSVKGRFTISRDNAKNTVYLQMNSLKPEDTAVYYCAARRYQSEDVPYGYWGQGTQVTVSS :: high polyreactivity

Dear colleague, could you please provide polyreactivity (PSR sort gate) for the sequences listed below?
1. QVQLVESGGGLVQAGGSLRLSCAASGFTLGCYAMGWYRQAPGKERELVAAITRDGSSTYYADSVKGRFTISRDNAKNTVYLQMNRLKPEDTAVYYCAAERKKKYDYWGQGTQVTVSS
2. QVQLVESGGGLVQAGGSLRLSCAASGSTIVVNAMGWSRQAPGKERELVASISWTTGSTYYADSVKGRFTISRDNAKNTVFLQMNSLKPEDTAVYYCAADILPRYSQFDYWGQGTQVTVSS
3. QVQLVESGGGLVQAGGSLRLSCAASGRTINRSAMGWYRQAPGKARELVAAISTSGGTTYYADSVKGRFTISRDNAQNTAYLQMNSLKPEDPADYYCAKRGPVRTQYTYYYWGQGTQVTVSS

OUTPUT:
1. high polyreactivity
2. low polyreactivity
3. high polyreactivity
